For each of the compounds below, state its pIC50.
- SYSTEM UNDER TEST: HBO-KAT7 (Homo sapiens)
- Construct: encoding amino acid residues 325 to 611 (Uniprot 095251-1) of human KAT7; made in house; host or cells: E. coli BL21 DE3 RIL
- Sequence (O95251 with tags, fused parts or gaps): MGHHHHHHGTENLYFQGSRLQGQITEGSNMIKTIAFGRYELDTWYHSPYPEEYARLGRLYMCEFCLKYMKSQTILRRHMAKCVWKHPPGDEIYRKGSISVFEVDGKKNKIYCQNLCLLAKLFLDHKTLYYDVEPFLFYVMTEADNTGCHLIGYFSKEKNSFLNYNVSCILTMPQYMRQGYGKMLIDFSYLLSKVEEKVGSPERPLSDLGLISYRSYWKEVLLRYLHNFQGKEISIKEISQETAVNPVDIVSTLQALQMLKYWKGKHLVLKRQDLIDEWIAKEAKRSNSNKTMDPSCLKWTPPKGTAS
- METHOD SUMMARY: Revised Acetyltransferase Biochemical Assay, KAT7
- RECORDED CONDITIONS: Table 9 (HBO-KAT7), 1 μM Acetyl coenzyme A
Field pIC50 (float): negative decimal logarithm of the concentration in molar.

Request: Entry under review: O=C(NCC(c1ccccc1)c1nnc(C(F)F)o1)C1=Nc2ccc(I)cc2S(=O)(=O)N1 (centres unmarked) [Example 185] . Reported pIC50?
Result: 6.58

Request: Entry under review: O=C(NCC(F)(F)c1ccccc1OC(F)F)C1=Nc2ccc(I)cc2S(=O)(=O)N1 [Example 231] . Reported pIC50?
Result: 6.84

Request: Entry under review: O=C(NCC(c1ccc(F)cc1)c1ncco1)C1=Nc2ccc(I)cc2S(=O)(=O)N1 (centres unmarked) [Example 164] . Reported pIC50?
Result: 6.62

Request: Entry under review: NC(=O)c1ccccc1CCNC(=O)C1=Nc2ccc(I)cc2S(=O)(=O)N1 [Example 230] . Reported pIC50?
Result: 5.64

Request: Entry under review: O=C(NCC(F)(c1ccccc1)c1ncco1)C1=Nc2ccc(I)cc2S(=O)(=O)N1 (centres unmarked) [Example 177] . Reported pIC50?
Result: 6.91

Request: Entry under review: COc1ccccc1CCNC(=O)C1=Nc2ccc(I)cc2S(=O)(=O)N1 [Example 86] . Reported pIC50?
Result: 6.10

Request: Entry under review: CC(C)OC(=O)NC(CNC(=O)C1=Nc2ccccc2S(=O)(=O)N1)c1ccccc1 (centres unmarked) [Example 50] . Reported pIC50?
Result: 4.31

Request: Entry under review: CNC(C)c1ccc2c(c1)S(=O)(=O)NC(C(=O)NCC(c1ccccc1)c1ncco1)=N2 (centres unmarked) [Example 209] . Reported pIC50?
Result: 5.78

Request: Entry under review: O=C(NCC(c1cccc(O)c1)c1ncco1)C1=Nc2ccc(Cl)cc2S(=O)(=O)N1 (centres unmarked) [Example 216] . Reported pIC50?
Result: 6.82

Request: Entry under review: O=C(NCC(CCO)c1ccccc1)C1=Nc2ccccc2S(=O)(=O)N1 (centres unmarked) [Example 3] . Reported pIC50?
Result: 4.30

Request: Entry under review: COC(=O)c1ccc2c(c1)S(=O)(=O)NC(C(=O)NCC(c1ccccc1)c1ccccc1)=N2 [Example 20] . Reported pIC50?
Result: 5.90

Request: Entry under review: CC(=O)c1ccc2c(c1)S(=O)(=O)NC(C(=O)NCC(c1ccccc1)c1ncco1)=N2 (centres unmarked) [Example 43] . Reported pIC50?
Result: 7.07

Request: Entry under review: O=C(NCC(CO)c1ccccc1)C1=Nc2ccc(Cl)cc2S(=O)(=O)N1 (centres unmarked) [Example 225] . Reported pIC50?
Result: 5.84

Request: Entry under review: O=C(NCC(F)(F)c1ccccc1OC(F)F)C1=Nc2ccc(Cl)cc2S(=O)(=O)N1 [Example 232] . Reported pIC50?
Result: 6.41

Request: Entry under review: CC(CNC(=O)C1=Nc2ccccc2S(=O)(=O)N1)(c1ccccc1)c1ccccc1 [Example 206] . Reported pIC50?
Result: 5.92

Request: Entry under review: O=C(NCCc1ccccc1OC(F)F)C1=Nc2ccc(I)cc2S(=O)(=O)N1 [Example 91] . Reported pIC50?
Result: 7.13

Request: Entry under review: Cc1cccc(C(CNC(=O)C2=Nc3ccc(Cl)cc3S(=O)(=O)N2)c2ncco2)c1 (centres unmarked) [Example 234] . Reported pIC50?
Result: 7.05
